- Species on record: Mus musculus
- protocol: In vitro photodynamic therapy efficacy (0.06 uM) in RIF tumor cells using MTT assay; expressed as light dose
- Assay type: functional
readout label: LD50

# example entries with known answers
C=Cc1c(C)c2cc3nc(c4c5nc(cc6[nH]c(cc1[nH]2)c(C)c6CC)C(C)=C5C(=O)C4)[C@@H](CCC(=O)NCCCCCCNc1ccc([N+](=O)[O-])c2nonc12)[C@@H]3C
>2 J/cm2
C=Cc1c(C)c2[n]3c1=CC1=[N+]4C(=Cc5c(C)c6c7[n]5[Zn-2]34[N+]3=C(C=2)[C@@H](C)[C@H](CCC(=O)OC)C3=C7CC6=O)C(CC)=C1C (some centres undefined)
>2 J/cm2
C=Cc1c(C)c2cc3nc(c4c5nc(cc6[nH]c(cc1[nH]2)c(C)c6CC)C(C)=C5C(=O)C4)[C@@H](CCC(=O)OC)[C@@H]3C
>2 J/cm2

Please look up its LD50: CCCCCCOC(C)C1=C(C)c2cc3nc(c4c5[nH]c(cc6[nH]c(cc1n2)c(C)c6CC)c(C)c5C(=O)C4)[C@@H](CCC(=O)OC)[C@@H]3C (some centres undefined)
0.43 J/cm2

----------
Entries and their log10 IC50
- protocol: Displacement of [3H]PK11195 from peripheral benzodiazepine receptor
Answers are given as log10 of IC50 in µM.

# example entries with known answers
C=Cc1c(C)c2cc3nc(c4c5nc(cc6[nH]c(cc1[nH]2)c(C)c6CC)C(C)=C5C(=O)C4)[C@@H](CCC(=O)OC)[C@@H]3C
0.26
C=Cc1c(C)c2cc3nc(c4c5nc(cc6[nH]c(cc1[nH]2)c(C)c6CC)C(C)=C5C(=O)C4)[C@@H](CCC(=O)NCCCCCCNc1ccc([N+](=O)[O-])c2nonc12)[C@@H]3C
1.57
CCCCCCOC(C)C1=C(C)c2cc3nc(c4c5[nH]c(cc6[nH]c(cc1n2)c(C)c6CC)c(C)c5C(=O)C4)[C@@H](CCC(=O)OC)[C@@H]3C (stereo partly specified)
1.23
C=Cc1c(C)c2[n]3c1=CC1=[N+]4C(=Cc5c(C)c6c7[n]5[Zn-2]34[N+]3=C(C=2)[C@@H](C)[C@H](CCC(=O)OC)C3=C7CC6=O)C(CC)=C1C (stereo partly specified)
0.46
CCC(C)N(C)C(=O)c1cc2ccccc2c(-c2ccccc2Cl)n1 (stereo unspecified)
-0.41

# evaluate next
Please look up its log10 IC50: `O=C(Cc1c[nH]c2ccccc12)NCCCCCCNc1ccc([N+](=O)[O-])c2nonc12`
-0.49
